- System: HCT-116 colon
- Experimental protocol: NCI tumour cell line growth inhibition, 48 h
Measurement label: TGI (µM)

NC(=O)c1ccccc1NC(=O)C(=O)C(C(=O)c1ccc(Cl)c(Cl)c1)C1OC(=O)c2ccccc21 (centres undefined) :: 39
COc1ccc(C(=C2C=CC=C2)c2ccc(OC)cc2)cc1 :: 84.8
Nc1cc(NN=C(c2ccc(O)cc2)c2ccc(O)cc2)c([N+](=O)[O-])cc1[N+](=O)[O-] :: 4.23
CC(=O)/C=C/C1=C(C)CCCC1(C)CC(C)C (centres undefined) :: 77.8
COC(=O)[C@@H](O)[C@](O)(CCC(C)C)C(=O)O[C@@H]1C(OC)=C[C@]23CCCN2CCc2cc4c(cc2[C@H]13)OCO4 :: 2.57
COc1ccc(CN2C(=O)/C(=C\c3cc(OC)c(OC)c(OC)c3)c3ccccc32)cc1 :: 3.05

* * *

- System: 786-0 renal
- Experimental protocol: NCI tumour cell line growth inhibition, 48 h; in the data active means GI50 below about 0.43 µM; inactive means the rest
Outcome codes: T for active, F for inactive

CCCCCCCCCCCCCCCC[N+](C)(C)Cc1ccccc1 :: F
COc1ccc2nc(NC(=O)CSc3nnc4n3S(=O)(=O)c3ccccc3N4c3ccccc3)sc2c1 :: F
Cc1cc(I)cc(CN(CCCN(C)C)C(C)C)c1O :: F
CCCOc1cc2ccccc2cc1C(=O)Nc1nc(N)c2c(ccc3nccc32)[nH]1 :: T
O=C(Nc1ccc(Oc2ccc(Nc3nc4ccccc4s3)cc2)cc1)Nc1ccc(Cl)c(C(F)(F)F)c1 :: F
CN(C)c1cc(NN=C(c2ccc(O)cc2)c2ccc(O)cc2)c([N+](=O)[O-])cc1[N+](=O)[O-] :: F
CN1CC[C@@H](NC(=O)Nc2ccc(C#N)cc2)C[C@@H]1c1nc2ccccc2[nH]1 :: F
CCOC(=O)C1=C(C)N(c2ccc(F)cc2F)[C@]2(C#N)C(O)=C(Cl)C(Cl)=C(O)[C@]12C#N :: F
Nc1ccccc1SC(CC(=O)c1ccccc1)c1cccc([N+](=O)[O-])c1 (centres undefined) :: F

* * *

Measured GI50 of individual entries
- Tested on: K-562 leukemia
- Experimental protocol: NCI tumour cell line growth inhibition, 48 h
Measurement label: GI50

N#Cc1c[nH]n2c(N=Nc3ccc(Cl)cc3)c(O)nc12 :: 26.4 µM
COc1ccc(C2[C@@H](c3ccccc3)C(=O)N2c2cc(OC)c(OC)c(OC)c2)cc1F (stereo not given in full) :: 0.0321 µM
Nc1ccccc1SC(CC(=O)c1ccccc1)c1cccc([N+](=O)[O-])c1 (stereo not given) :: 3.72 µM
CCCOc1cc2ccccc2cc1C(=O)Nc1nc(N)c2c(ccc3nccc32)[nH]1 :: 0.0339 µM
CCOC(=O)C1=C(C)N(c2ccc(F)cc2F)[C@]2(C#N)C(O)=C(Cl)C(Cl)=C(O)[C@]12C#N :: 88 µM

* * *

Measured GI50 of individual entries
- Tested on: SF-295 CNS
- Experimental protocol: NCI tumour cell line growth inhibition, 48 h
Measurement label: GI50

O=c1ccc2ccccc2cc1[O-].O=c1ccc2ccccc2cc1[O-].[O]=[U+2]=[O] :: 17.7 µM
CCn1c(-c2nonc2N)nc2c(C#CC(C)(C)O)nc(OC[C@@H](N)c3ccccc3)cc21 :: 4.59 µM
CN1CC[C@@H](NC(=O)Nc2ccc(C#N)cc2)C[C@@H]1c1nc2ccccc2[nH]1 :: > 100 µM
COC[C@H]1Cn2cc(-c3nc(Nc4ccnn4C)ncc3C)nc2C(=O)N1Cc1ccc(F)c(F)c1 :: > 100 µM
CC1SC(c2ccc(F)cc2)N(NC(=O)C(O)c2ccccc2)C1=O (stereo unspecified) :: > 100 µM
COc1ccc2[nH]cc(/C=C(/C)c3ccncc3)c2c1 :: 3.63 µM
Cc1nnc(NC(=O)c2nc(S(=O)(=O)Cc3ccc(F)cc3)ncc2Cl)s1 :: 15.9 µM
CCCCCCCCCCn1cc[n+](C)c1 :: 1.39 µM
c1ccc(Sc2ncnc3ccccc23)cc1 :: 14.2 µM
Cn1ccc2c3c(Oc4ccc(NC(N)=O)cc4)ccnc3ccc21 :: > 100 µM
Nc1ccccc1SC(CC(=O)c1ccccc1)c1cccc([N+](=O)[O-])c1 (stereo unspecified) :: 16.2 µM

* * *

- Tested on: HT29 colon
- Experimental protocol: NCI tumour cell line growth inhibition, 48 h
Measurement label: TGI

COC[C@H]1Cn2cc(-c3nc(Nc4ccnn4C)ncc3C)nc2C(=O)N1Cc1ccc(F)c(F)c1 :: > 100 µM
CCC(=C/[C@H](C)C/C=C/C(C)=C/[C@@H](C)C(=O)[C@@H](C)[C@H](O)[C@@H](C)CC)/C=C/[C@H]1OC(=O)C=C[C@@H]1C :: 1.15 µM
COP(=O)(OC)C1=c2c(C)noc2=C2C=COC2C1=O (centres undefined) :: > 100 µM
CC(C)=CCC[C@@H](C)c1c(O)c(O)c(C)c2nccnc12 :: > 65.6 µM
CCOC(=O)N1CCN(Cc2cc(=O)n3ccc(C)cc3n2)CC1 :: > 100 µM
C=C1CCN2CC[C@@H](OC(=O)/C(C)=C\C)[C@@H]12 :: > 100 µM
C(=C(c1ccc(OC2CCCCO2)cc1)c1ccc(OC2CCCCO2)cc1)c1ccccc1 (centres undefined) :: 1.28 µM
CCN(CC)C(=S)N/N=C/c1cc([N+](=O)[O-])ccc1O :: > 100 µM
CC(=O)c1c2c(c3ccccc3c1O)O[C@@H]1OCC[C@H]21 :: > 100 µM
CCCCCC[C@@H]1CCC2C(CO)[C@@H](O)CC[C@@H]2C1 (some centres undefined) :: 34.1 µM
COC(=O)[C@@H](O)[C@](O)(CCC(C)C)C(=O)O[C@@H]1C(OC)=C[C@]23CCCN2CCc2cc4c(cc2[C@H]13)OCO4 :: 12.2 µM
CC(C)(C)c1cc2c(O)c3cccc4c(=O)c5cccc6c5-c(c34)c2c(c1)c6=O :: > 100 µM
COc1ccc2nc(NC(=O)CSc3nnc4n3S(=O)(=O)c3ccccc3N4c3ccccc3)sc2c1 :: > 100 µM
CCCCCCCCCCCCC(O)c1ccc(C#CCCCCCCCCCO)o1 (centres undefined) :: > 100 µM
O=C(/C(=C/c1ccc([N+](=O)[O-])cc1)SCc1ccccc1)c1ccc(Cl)cc1 :: 5.75 µM
C/C(=N/Nc1ccc([N+](=O)[O-])cc1[N+](=O)[O-])C(CC(C(=O)NCc1ccccc1)/C(C)=N\Nc1ccc([N+](=O)[O-])cc1[N+](=O)[O-])C(=O)NCc1ccccc1 (centres undefined) :: 18.5 µM
Cc1cc(I)cc(CN(CCCN(C)C)C(C)C)c1O :: 21.2 µM
COCCOc1ccc(-c2nc3ccc(-c4nc5ccc(N6CCN(C)CC6)cc5[nH]4)cc3[nH]2)cc1 :: > 100 µM
O=C(CCCSc1nc(-c2ccccc2)cc(-c2ccccc2)n1)NO :: 12.2 µM
Cn1ccc2c3c(Oc4ccc(NC(N)=O)cc4)ccnc3ccc21 :: > 100 µM
Nc1nc2c(c(-c3cccc(Cl)c3)n1)COC/C2=C\c1cccc(Cl)c1 :: > 100 µM
O=[N+]([O-])c1ccc2[nH]nc(OCc3ccccc3Cl)c2c1 :: > 100 µM
c1ccc2c(c1)Cn1c-2nc2ccccc21 :: > 100 µM
COc1nc(NC2OC(COC(C)=O)C(OC(C)=O)C(OC(C)=O)C2OC(C)=O)c2c(OC(C)=O)cc(=O)oc2n1 (centres undefined) :: > 100 µM
O=C1CCCCC1CN1CCCCC1 (centres undefined) :: > 100 µM
CC1=C2C(=C[C@@](C)(CO)[C@@H]2O)C(=O)[C@](C)(O)C12CC2 :: 0.0286 µM
N[C@@H](CCC(=O)NCP(=O)(O)O)C(=O)O :: > 100 µM
Cc1cccc(Cn2c3c(c4cc(O)ccc42)C(=O)c2ccccc2C3=O)c1 :: > 100 µM
COc1cccc(C2SC(N)=Nc3c2c(C)nn3C(=O)c2ccccc2O)c1 (centres undefined) :: > 10 µM
O=[N+]([O-])c1cc(C=NC23CC4CC(CC(C4)C2)C3)ccc1Cl :: 39.8 µM
CC(C)c1cc2c(cc1S(=O)(=O)O)[C@@]1(C)CCC[C@@](C)(C(=O)O)C1CC2 (some centres undefined) :: > 100 µM
CCC(=O)NC(Nc1cc(C)on1)(C(F)(F)F)C(F)(F)F :: > 100 µM
N#CC(NCc1cccc(CNC(C#N)c2ccccc2)c1)c1ccccc1 (centres undefined) :: 30.8 µM
COc1cccc(-c2nc(-c3ccc(NC(=O)OC(C)C)cc3)[nH]c2-c2ccnc(Br)c2)c1 :: > 100 µM
Cc1csc(-c2nnc(Nc3ccc(Oc4ncccc4-c4ccnc(N)n4)cc3)c3ccccc23)c1 :: > 100 µM
CCN(Cc1ccc(F)cc1)c1cc(Cl)c(CO)c(Cl)c1 :: 33.2 µM
COc1cc(S(=O)(=O)Nc2nc(-c3ccc(N4C(=O)C(CC(=O)O)SC4c4cccs4)cc3)cs2)ccc1Cl (centres undefined) :: > 100 µM
O=c1c(-c2ccccc2)c2oc(c1-c1ccccc1)CSCc1cccc(c1)CSC2 :: > 100 µM
O=C1CCC2(c3ccc(Cl)cc3)Nc3ccncc3N12 (centres undefined) :: > 10 µM
